- Tested on: UACC-257
- method.summary: NCI tumour cell line growth inhibition, 48 h
Calls of active or inactive are those of the source. No stated cut-off is given here; in the data, active = GI50 up to about 1.1 µM and inactive = higher.
property.name: GI50

// worked examples, GI50 included
[[record]]
compound = "Cn1c2ccccc2c2ccc3c(c21)C(=O)c1ccccc1C3=O"
result = "19.5 µM (inactive)"

[[record]]
compound = "Cn1c2ccccc2c(=O)c2c(O)cc3c(c21)C=CC1(CCCC1)O3"
result = "> 100 µM (inactive)"

[[record]]
compound = "Cc1cc(C(O)CNC(C)CCn2cnc3c2c(=O)n(C)c(=O)n3C)ccc1O (configuration not stated)"
result = "> 100 µM (inactive)"

[[record]]
compound = "COc1cc2c(c(O)c1OC)CC1CCC(=O)N1C2c1cccc2ccccc12 (configuration not stated)"
result = "23.6 µM (inactive)"

[[record]]
compound = "CCN(CC)Cc1cc(Nc2c3ccccc3nc3c4ccccc4n(C)c23)ccc1O"
result = "10.4 µM (inactive)"

[[record]]
compound = "Cc1ccc2nc(Cl)c(/C=N/N3C(=O)/C(=C/c4cccc([N+](=O)[O-])c4)N=C3c3ccccc3)cc2c1"
result = "61.1 µM (inactive)"


// query Value lookup for GI50; key = CC(=O)O[C@H]1C[C@H]2[C@@H](OC(C)=O)/C=C3\C[C@](C)(C(=O)[C@H](O)C(=C1C)C2(C)C)[C@@H](O)C[C@@H]3OC(=O)[C@H](O)[C@H](c1ccccc1)N(C)C
// result > 100 µM (inactive)

// query Value lookup for GI50; key = COc1ccc2oc(=O)c(CC=C(C)C)c(O)c2c1C
// result > 100 µM (inactive)

// query Value lookup for GI50; key = Cc1c(C=C(C#N)C#N)c(=O)n(C)c(=O)n1C
// result > 100 µM (inactive)

---

- Tested on: NCI-H522
- method.summary: NCI tumour cell line growth inhibition, 48 h
Active and inactive are the calls of the source. No stated cut-off is given here; in the data, active = GI50 up to about 1.1 µM and inactive = higher.
GI50 overview

// worked examples, GI50 included
[[record]]
compound = "N#Cc1nc(-c2cc([N+](=O)[O-])cc([N+](=O)[O-])c2)oc1N"
result = "> 10 µM (inactive)"

[[record]]
compound = "NCCCNCCCCN1CC1"
result = "2.81 µM (inactive)"

[[record]]
compound = "CCC(C)C(=O)OCC(=O)c1ccc(-c2ccccc2)cc1 (stereo not drawn)"
result = "22.8 µM (inactive)"

[[record]]
compound = "CC1=C(C#N)C(=C(C#N)C#N)OC1(C)Cc1ccccc1 (stereo not drawn)"
result = "14.4 µM (inactive)"

[[record]]
compound = "COc1ccc2c(c1)/C(=C\\c1c(Cl)nc3sc(C)cn13)C(=O)N2"
result = "3.05 µM (inactive)"

[[record]]
compound = "CN(C)c1ccc2nc3c(C(=O)O)cc(O)c(O)c3[o+]c2c1"
result = "5.48 µM (inactive)"

[[record]]
compound = "NC(=O)C(N)=O"
result = "> 100 µM (inactive)"


Turning now to a further compound:
// query Value lookup for GI50; key = COc1cc2c(c(OC)c1OC)C(=O)c1c(O)cc(C)c(OC)c1C2=O
// result 57.1 µM (inactive)

---

- Test system: COLO 205
- method.summary: NCI tumour cell line growth inhibition, 48 h
Activity calls are given as the source filed them. Cut-off read from the data, not from the text of the source: active = GI50 up to about 1.1 µM and inactive = higher.
GI50 overview

[[record]]
molecule = "CCn1c(-c2ccccc2)nc2c1C(=O)c1ccccc1C2=O"
tgt = "COLO 205"
result = "14.1 µM (inactive)"


// query Please tell me: GI50 of COC(=O)c1ccc(C)cc1C1CN=NC12Cc1cccc(C)c1C2=O (stereo not drawn) , system COLO 205?
// result 30.5 µM (inactive)

// query Please tell me: GI50 of O=C1C=C2C(=NC34CCCCC3C(c3ccccc3)C3=C(c5ccccc5CC3)N24)c2ccccc21 (stereo not drawn) , system COLO 205?
// result > 10 µM (inactive)
